Each record here notes measured IC50.
Target sequence: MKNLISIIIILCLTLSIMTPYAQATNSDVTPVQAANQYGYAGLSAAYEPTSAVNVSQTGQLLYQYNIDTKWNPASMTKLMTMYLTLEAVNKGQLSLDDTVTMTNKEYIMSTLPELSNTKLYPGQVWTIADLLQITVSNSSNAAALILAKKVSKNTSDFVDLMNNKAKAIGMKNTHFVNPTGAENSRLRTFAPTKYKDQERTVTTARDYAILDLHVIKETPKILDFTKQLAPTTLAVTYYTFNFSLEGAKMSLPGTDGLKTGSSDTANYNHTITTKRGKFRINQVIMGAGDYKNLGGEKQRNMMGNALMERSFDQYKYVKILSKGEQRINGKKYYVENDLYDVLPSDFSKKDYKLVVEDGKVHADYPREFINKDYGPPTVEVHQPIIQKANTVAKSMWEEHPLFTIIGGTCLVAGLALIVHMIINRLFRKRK
Please give a number only; it is taken to be in µM.

# Compound, Output Unit, IC50
data = [
    ("CO/N=C(\\C(=O)N[C@@H]1C(=O)N2C(C(=O)O)=C(CSc3nc(=O)c(O)nn3C)CS[C@H]12)c1csc(N)n1 (stereo in doubt)", "µM", 18),
]

Please find the next compound below.
Q: Which measured IC50 value corresponds to "Nc1nc(/C(=N/O)C(=O)N[C@@H]2C(=O)N3C(C(=O)O)=C(/C=C4\CCN([C@@H]5CCNC5)C4=O)CS[C@H]23)ns1" ?
Result: 1.87

---

Each record here notes measured IC50.
Experimental Target: Penicillin-binding protein 2 (Pseudomonas aeruginosa, UniProt Q9X6V3)
Sequence (Q9X6V3 whole entry): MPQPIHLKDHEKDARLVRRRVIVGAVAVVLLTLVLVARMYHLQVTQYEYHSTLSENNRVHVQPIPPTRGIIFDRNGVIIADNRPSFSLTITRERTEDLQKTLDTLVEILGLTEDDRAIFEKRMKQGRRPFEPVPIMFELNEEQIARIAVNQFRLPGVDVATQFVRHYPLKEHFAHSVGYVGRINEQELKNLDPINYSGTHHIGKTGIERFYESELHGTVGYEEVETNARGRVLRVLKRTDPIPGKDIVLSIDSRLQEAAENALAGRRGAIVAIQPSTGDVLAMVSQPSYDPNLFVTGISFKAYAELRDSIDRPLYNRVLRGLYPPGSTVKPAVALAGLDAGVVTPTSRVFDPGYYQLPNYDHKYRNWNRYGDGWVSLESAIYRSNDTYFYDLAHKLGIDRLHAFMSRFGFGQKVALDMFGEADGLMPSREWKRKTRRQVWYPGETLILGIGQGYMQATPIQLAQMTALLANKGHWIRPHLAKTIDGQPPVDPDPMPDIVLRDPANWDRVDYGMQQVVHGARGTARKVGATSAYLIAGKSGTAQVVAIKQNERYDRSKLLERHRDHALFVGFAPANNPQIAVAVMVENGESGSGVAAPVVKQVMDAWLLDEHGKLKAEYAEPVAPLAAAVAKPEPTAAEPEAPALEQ
Assay: Inhibition of bocillin FL binding to Pseudomonas aeruginosa PAO1 penicillin-binding protein 2

Observe how each entry below is paired with its result.
# Compound, Experimental Value
rows = [
    ("C[C@H]1[C@H](NC(=O)/C(=N\\OC(C)(C)C(=O)O)c2csc(N)n2)C(=O)N1S(=O)(=O)O (stereo in doubt)", "36.7 µM"),
    ("C[C@@H](O)[C@H]1C(=O)N2C(C(=O)O)=C(SCCNC=N)C[C@H]12 [IMIPENEM ANHYDROUS]", "0.334 µM"),
    ("Nc1nc(/C(=N/O)C(=O)N[C@@H]2C(=O)N3C(C(=O)O)=C(/C=C4\\CCN([C@@H]5CCNC5)C4=O)CS[C@H]23)ns1", "5.61 µM"),
    ("CC(C)(O/N=C(\\C(=O)N[C@@H]1C(=O)N2C(C(=O)[O-])=C(C[n+]3ccccc3)CS[C@H]12)c1csc(N)n1)C(=O)O", "> 58.5 µM"),
]

Q: Which measured IC50 value corresponds to "CO/N=C(\C(=O)N[C@@H]1C(=O)N2C(C(=O)[O-])=C(C[N+]3(C)CCCC3)CS[C@H]12)c1csc(N)n1" ?
Result: 16.6 µM

---

Experimental Target: Penicillin-binding protein 1B (Pseudomonas aeruginosa, UniProt Q9X6W0)
Sequence (Q9X6W0 whole entry): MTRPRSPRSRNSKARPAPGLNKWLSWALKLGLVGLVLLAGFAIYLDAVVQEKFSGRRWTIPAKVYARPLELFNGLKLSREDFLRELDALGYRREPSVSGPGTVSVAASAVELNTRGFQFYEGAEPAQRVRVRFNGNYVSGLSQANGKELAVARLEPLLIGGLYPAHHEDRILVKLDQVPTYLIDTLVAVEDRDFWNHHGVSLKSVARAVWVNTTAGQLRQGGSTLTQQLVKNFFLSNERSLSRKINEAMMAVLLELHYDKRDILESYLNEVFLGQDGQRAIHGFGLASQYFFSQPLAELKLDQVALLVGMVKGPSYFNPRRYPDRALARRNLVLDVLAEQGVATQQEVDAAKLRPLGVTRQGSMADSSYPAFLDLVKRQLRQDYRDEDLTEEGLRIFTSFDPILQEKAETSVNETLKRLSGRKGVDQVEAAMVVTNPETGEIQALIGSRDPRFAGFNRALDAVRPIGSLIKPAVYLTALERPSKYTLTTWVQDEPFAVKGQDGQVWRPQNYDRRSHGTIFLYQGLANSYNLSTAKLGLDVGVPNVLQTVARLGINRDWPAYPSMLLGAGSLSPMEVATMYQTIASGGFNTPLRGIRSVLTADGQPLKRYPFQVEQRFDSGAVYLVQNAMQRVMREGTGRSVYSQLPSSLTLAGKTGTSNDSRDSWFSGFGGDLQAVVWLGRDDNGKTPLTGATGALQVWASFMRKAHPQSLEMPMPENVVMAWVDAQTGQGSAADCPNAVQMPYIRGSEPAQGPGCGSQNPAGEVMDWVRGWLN
Assay: Inhibition of bocillin FL binding to Pseudomonas aeruginosa PAO1 penicillin-binding protein 1b
Observable: IC50 (nM)
Please give a number only; it is taken to be in nM.

Observe how each entry below is paired with its result.
# Compound, Output Unit, Experimental Value
measured = [
    ("C[C@@H](O)[C@H]1C(=O)N2C(C(=O)O)=C(SCCNC=N)C[C@H]12 [IMIPENEM ANHYDROUS]", "nM", 1670),
    ("CC(C)(O/N=C(\\C(=O)N[C@@H]1C(=O)N2C(C(=O)[O-])=C(C[n+]3ccccc3)CS[C@H]12)c1csc(N)n1)C(=O)O [CEFTAZIDIME]", "nM", 9150),
]

Q: Which measured IC50 value corresponds to Nc1nc(/C(=N/O)C(=O)N[C@@H]2C(=O)N3C(C(=O)O)=C(/C=C4\CCN([C@@H]5CCNC5)C4=O)CS[C@H]23)ns1 [CEFTOBIPROLE] ?
Result: 935

---

Target sequence: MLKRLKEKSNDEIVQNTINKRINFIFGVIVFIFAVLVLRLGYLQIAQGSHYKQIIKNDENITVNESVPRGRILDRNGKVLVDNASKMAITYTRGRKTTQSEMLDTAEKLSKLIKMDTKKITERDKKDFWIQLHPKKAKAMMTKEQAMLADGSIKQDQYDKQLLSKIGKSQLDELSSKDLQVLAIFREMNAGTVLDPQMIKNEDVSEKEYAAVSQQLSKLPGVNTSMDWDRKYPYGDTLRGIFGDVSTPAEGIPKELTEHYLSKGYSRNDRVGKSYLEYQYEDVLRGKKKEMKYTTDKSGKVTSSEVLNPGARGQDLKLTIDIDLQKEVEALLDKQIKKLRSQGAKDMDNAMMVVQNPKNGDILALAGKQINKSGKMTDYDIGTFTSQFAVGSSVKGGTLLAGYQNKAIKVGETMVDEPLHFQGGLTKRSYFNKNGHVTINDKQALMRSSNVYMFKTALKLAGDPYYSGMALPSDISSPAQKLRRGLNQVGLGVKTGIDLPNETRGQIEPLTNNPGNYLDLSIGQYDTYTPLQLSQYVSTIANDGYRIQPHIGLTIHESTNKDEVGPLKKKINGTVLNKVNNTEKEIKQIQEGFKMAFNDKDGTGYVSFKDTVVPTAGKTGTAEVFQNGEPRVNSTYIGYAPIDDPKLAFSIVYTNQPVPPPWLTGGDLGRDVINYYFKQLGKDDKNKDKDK
Each record here notes measured pIC50.
Keep in mind that pIC50 stands for -log10 of concentration in molar terms.

# Molecule, pIC50
data = [
    ("Nc1nc(/C(=N/O)C(=O)N[C@@H]2C(=O)N3C(C(=O)O)=C(/C=C4\\CCN([C@@H]5CCNC5)C4=O)CS[C@H]23)ns1 [CEFTOBIPROLE]", 7.03),
]

Please find the next molecule below.
Q: Which measured pIC50 value corresponds to CO/N=C(\C(=O)N[C@@H]1C(=O)N2C(C(=O)O)=C(CSc3nc(=O)c(O)nn3C)CS[C@H]12)c1csc(N)n1 (stereo in doubt) [CEFTRIAXONE] ?
Result: 5.74

---

Each record here notes measured IC50.
Assay: Inhibition of bocillin FL binding to Pseudomonas aeruginosa PAO1 penicillin-binding protein 5/6

# Compound, IC50
measured = [
    ("CO/N=C(\\C(=O)N[C@@H]1C(=O)N2C(C(=O)[O-])=C(C[N+]3(C)CCCC3)CS[C@H]12)c1csc(N)n1", "> 32 mg/L"),
    ("C[C@@H](O)[C@H]1C(=O)N2C(C(=O)O)=C(SCCNC=N)C[C@H]12 [IMIPENEM ANHYDROUS]", "2 mg/L"),
    ("Nc1nc(/C(=N/O)C(=O)N[C@@H]2C(=O)N3C(C(=O)O)=C(/C=C4\\CCN([C@@H]5CCNC5)C4=O)CS[C@H]23)ns1 [CEFTOBIPROLE]", "> 32 mg/L"),
]

Q: Which measured IC50 value corresponds to CC(C)(O/N=C(\C(=O)N[C@@H]1C(=O)N2C(C(=O)[O-])=C(C[n+]3ccccc3)CS[C@H]12)c1csc(N)n1)C(=O)O [CEFTAZIDIME] ?
Result: > 32 mg/L

Q: Which measured IC50 value corresponds to C[C@H]1[C@H](NC(=O)/C(=N\OC(C)(C)C(=O)O)c2csc(N)n2)C(=O)N1S(=O)(=O)O (stereo in doubt) [AZTREONAM] ?
Result: > 16 mg/L

---

Experimental Target: UniProt:Q2TL65
Sequence (Q2TL65 whole entry): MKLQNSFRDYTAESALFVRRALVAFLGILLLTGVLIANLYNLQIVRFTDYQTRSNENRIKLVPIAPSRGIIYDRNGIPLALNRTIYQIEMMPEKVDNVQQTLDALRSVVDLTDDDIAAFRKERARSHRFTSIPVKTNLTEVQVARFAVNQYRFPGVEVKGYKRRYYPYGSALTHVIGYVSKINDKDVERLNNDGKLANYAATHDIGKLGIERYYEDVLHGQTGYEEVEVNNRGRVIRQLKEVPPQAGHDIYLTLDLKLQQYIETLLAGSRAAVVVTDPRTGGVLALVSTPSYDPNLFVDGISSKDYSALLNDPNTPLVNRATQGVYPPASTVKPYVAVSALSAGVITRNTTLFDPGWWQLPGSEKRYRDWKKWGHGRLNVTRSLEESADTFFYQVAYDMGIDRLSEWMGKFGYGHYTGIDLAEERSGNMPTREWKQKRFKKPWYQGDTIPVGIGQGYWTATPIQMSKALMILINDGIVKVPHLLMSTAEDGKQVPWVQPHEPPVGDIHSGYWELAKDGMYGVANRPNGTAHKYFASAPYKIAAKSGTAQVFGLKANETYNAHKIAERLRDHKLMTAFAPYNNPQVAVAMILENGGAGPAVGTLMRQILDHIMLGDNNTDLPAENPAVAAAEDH
pIC50: −log10 of the molar value.
The threshold is inclusive: pIC50 of exactly 6 counts as label 1; values below receive label 0.

Example cases with answers are listed next.
# Compound, Assigned Class
records = [
    ("C[C@H]1[C@H](NC(=O)/C(=N\\OC(C)(C)C(=O)O)c2csc(N)n2)C(=O)N1S(=O)(=O)O (stereo in doubt)", "label 0"),
    ("Nc1nc(/C(=N/O)C(=O)N[C@@H]2C(=O)N3C(C(=O)O)=C(/C=C4\\CCN([C@@H]5CCNC5)C4=O)CS[C@H]23)ns1", "label 1"),
    ("CC(C)(O/N=C(\\C(=O)N[C@@H]1C(=O)N2C(C(=O)[O-])=C(C[n+]3ccccc3)CS[C@H]12)c1csc(N)n1)C(=O)O", "label 0"),
    ("C[C@@H](O)[C@H]1C(=O)N2C(C(=O)O)=C(SCCNC=N)C[C@H]12 [IMIPENEM ANHYDROUS]", "label 1"),
]

Please find the next compound below.
Q: Form field: pIC50 at least 6? Entry: CO/N=C(\C(=O)N[C@@H]1C(=O)N2C(C(=O)O)=C(CSc3nc(=O)c(O)nn3C)CS[C@H]12)c1csc(N)n1 (stereo in doubt)
Result: label 1

---

pIC50, UniProt:Q53725, per-entry values.
Sequence (Q53725 whole entry): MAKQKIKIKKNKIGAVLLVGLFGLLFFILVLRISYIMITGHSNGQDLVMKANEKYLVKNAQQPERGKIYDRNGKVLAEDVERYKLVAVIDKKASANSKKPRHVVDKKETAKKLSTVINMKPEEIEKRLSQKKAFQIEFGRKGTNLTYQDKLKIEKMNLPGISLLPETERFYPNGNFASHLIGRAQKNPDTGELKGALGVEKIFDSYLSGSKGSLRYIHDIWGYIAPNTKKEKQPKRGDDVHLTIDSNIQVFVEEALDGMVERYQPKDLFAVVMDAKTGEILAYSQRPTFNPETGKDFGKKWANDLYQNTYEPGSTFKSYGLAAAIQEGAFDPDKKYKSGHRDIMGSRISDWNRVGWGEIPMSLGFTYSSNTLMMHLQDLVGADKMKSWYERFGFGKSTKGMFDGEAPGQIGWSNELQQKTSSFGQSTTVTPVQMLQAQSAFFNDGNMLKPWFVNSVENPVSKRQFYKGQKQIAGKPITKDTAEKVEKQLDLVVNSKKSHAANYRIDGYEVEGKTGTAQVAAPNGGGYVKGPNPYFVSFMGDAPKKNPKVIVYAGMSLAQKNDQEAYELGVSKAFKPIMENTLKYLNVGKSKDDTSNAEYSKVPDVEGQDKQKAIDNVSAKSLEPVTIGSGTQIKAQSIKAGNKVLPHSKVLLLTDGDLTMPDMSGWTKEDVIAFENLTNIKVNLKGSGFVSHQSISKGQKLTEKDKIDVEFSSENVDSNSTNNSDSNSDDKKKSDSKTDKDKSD
Keep in mind that pIC50 stands for -log10 of concentration in molar terms.

# Molecule, Experimental Target, Observable, Experimental Value
rows = [
    ("CO/N=C(\\C(=O)N[C@@H]1C(=O)N2C(C(=O)O)=C(CSc3nc(=O)c(O)nn3C)CS[C@H]12)c1csc(N)n1 (stereo in doubt) [CEFTRIAXONE]", "UniProt:Q53725", "pIC50", 6.05),
]

Please find the next molecule below.
Q: # query: pIC50 | item Nc1nc(/C(=N/O)C(=O)N[C@@H]2C(=O)N3C(C(=O)O)=C(/C=C4\CCN([C@@H]5CCNC5)C4=O)CS[C@H]23)ns1 [CEFTOBIPROLE] | system: UniProt:Q53725
Result: 6.73
